Tested on: MCF7 breast
method.summary: NCI-60 one-dose screen, 48 h
reported.conditions: 10 µM unless noted
Compounds without any hit were thinned out: in the full panel of roughly 83,000, 20% have a hit. Active and inactive are the calls of the source. The calls were made as follows: active = growth percent below 10; inactive = the rest.
Labels: active, inactive

# compound, discrete.label
rows = [
    ("CNC(=O)c1ccccc1Oc1nc(Nc2cc(OC)c(OC)c(OC)c2)ncc1Br", "inactive"),
    ("O=C1/C(=C/c2ccc([N+](=O)[O-])cc2)COc2ccc(O)cc21", "active"),
    ("CCCCn1c(=O)[nH]c(N)c([C@@H]2c3c([nH]c(=O)n(CCCC)c3=O)Oc3ccc4ccccc4c32)c1=O", "inactive"),
    ("Cc1ccc(C)n1-c1ccccc1-n1c(C)ccc1C", "inactive"),
    ("N#CC1=C(N)Oc2c(ccc3ccccc23)C1c1ccccc1 (stereo unspecified)", "inactive"),
    ("C=CCOC(=O)Nc1cccn([C@H](Cc2ccccc2)C(=O)NCCC(C)C)c1=O", "inactive"),
]
